methodNotes: Human HepG2 cell viability assay in 384 well format
Assay type: toxicity, cell-based
Design: dose 125 nL, time 70.5 hour; concentration not given beside the values
reportedConditions: HepG2 cells, read-out: Inhibition

compound	cytotoxicity at 70.5 h / %
O=C(c1c[nH]nc1-c1cccc(F)c1)N1CCNC(c2ccccc2)C1 (stereo not given)	-9.77
Cc1nccc([C@@H]2C[C@@H]3CCN(S(=O)(=O)C4CC4)C[C@H]3O2)n1	-1.95
CC(C)NC(=O)N1CCN(C(=O)c2ccco2)CC2(CC(=O)N(C)C2)C1 (stereo not given)	-23.2
CN(Cc1nc2ccccc2c(=O)[nH]1)C1CC(=O)N(C2CC2)C1=O (stereo not given)	-12.1
COc1ccc(OC2CCN(C(=O)C(C)Cn3cccn3)CC2)cc1 (stereo not given)	-2.17
CCC[C@@H](NC(N)=O)C(=O)N1CCc2ccccc2CC1	-3.57
COc1cc(CNc2nc3c(c(=O)[nH]2)CCNC3)cc(OC)c1OC	-6.47
CCC1CNCc2cc3c(OC)ccc(OC)c3nc2O1 (stereo not given)	12.3
CCn1ccnc1CN1CCN(Cc2cc(C#N)ccc2F)CC1	-3.57
CS(=O)(=O)NC[C@H]1OC[C@@H](NC2CCC(F)(F)CC2)[C@@H]1O	-5.87
COc1ccc(C(=O)N2CC[C@@H](N3CCC(O)CC3)[C@H](O)C2)cc1C	-3.31
Cc1ccc(NC2CCN(C(=O)c3cscn3)CC2)nn1	0.539
CCn1ccnc1CN1CCCC(CO)(Cc2cccc(Cl)c2)C1 (stereo not given)	-1.73
CS(=O)(=O)NC(=O)c1ccn(-c2cccc(Br)c2)n1	-3.84
CC(C)N(CC(N)=O)C(=O)CCC(=O)c1ccc(F)cc1F	-6.11

###

// cytotoxicity at 70.5 h lookup, one value per entry
methodNotes: Human HepG2 cell viability assay in 384 well format
Assay type: toxicity, cell-based
Parameters: dose 125 nL, time 70.5 hour; concentration not given beside the values
reportedConditions: HepG2 cells, read-out: Inhibition
quantityName: cytotoxicity at 70.5 h (%)

compound	quantityName	observedResult
c1ccc(CO[C@H]2CO[C@@]3(CCCN(Cc4cccnc4)C3)C2)nc1	cytotoxicity at 70.5 h	-24.8
COc1ccc(OC)c(CCNc2ncc(S(N)(=O)=O)s2)c1	cytotoxicity at 70.5 h	0.207
CN(Cc1ccccc1)CC(C)(C)NC(=O)c1ccon1	cytotoxicity at 70.5 h	-4.18
Fc1cnc(N2CCOCC3(CCCN(c4cnccn4)C3)C2)nc1 (stereo unspecified)	cytotoxicity at 70.5 h	-3.83
CCC1CN(C(=O)c2ccc(Cl)cc2O)CCN1C(C)C (stereo unspecified)	cytotoxicity at 70.5 h	-6.93
Cc1oc(-c2ccc(F)cc2)nc1CN1CCOCS1(=O)=O	cytotoxicity at 70.5 h	-12.2

###

methodNotes: Human HepG2 cell viability assay in 384 well format
Assay type: toxicity, cell-based
Parameters: dose 125 nL, time 70.5 hour; concentration not given beside the values
reportedConditions: HepG2 cells, read-out: Inhibition
Listing of entries alongside the reported cytotoxicity at 70.5 h.
quantityName: cytotoxicity at 70.5 h

compound	observedResult
O=C(C1CN(CC2CC2)CC12CCOCC2)N1CCCC1 (stereo not given)	16.3%
CC(Cn1cccn1)NC(=O)Cc1cccs1 (stereo not given)	-6.09%
CN(C)C(=O)[C@H]1C[C@@H]2CCN(Cc3ccncc3)C[C@H]2O1	-7.62%
CNC(=O)C(C)CN(C)C(=O)Nc1ccc(Cl)cc1-n1cccc1 (stereo not given)	4.05%
COc1ccccc1OC1CCN(C(=O)c2c[nH]c(=O)[nH]c2=O)CC1	-4.88%
CC(C)(C(=O)O)S(=O)(=O)c1ccc(Br)cc1	0.0653%
Cc1cc(NC(=O)N(C)CCN2CCN(c3ccccc3)CC2)on1	-2.89%
COc1cc(C)cc(-c2nc3c([nH]2)CCNC3)c1OC	9.79%
OC1(CNCc2csc(-c3ncccn3)n2)CCCNC1 (stereo not given)	-5.29%
COc1cccc(-c2nc3c([nH]2)CC(C)(C)CNC3=O)c1OC	-9.59%

###

methodNotes: Human HepG2 cell viability assay in 384 well format
Format: toxicity, cell-based
Set-up: dose 125 nL, time 70.5 hour; concentration not given beside the values
reportedConditions: HepG2 cells, read-out: Inhibition

molecule	resultUnits	cytotoxicity at 70.5 h
CNC(=O)C1CCCN(C(=O)NCCC2Cc3ccccc3C2)C1 (centres undefined)	%	-1.76
O=C(O)c1cc(S(=O)(=O)Nc2cc(F)cc(F)c2)cc2c1OCCO2	%	-4.5
Cc1ccc(C(NC(=O)[C@H]2CC[C@@H](O)CC2)c2cccnc2)cc1C (some centres undefined)	%	-6.91
O=C(CCc1ccsc1)NCC1CCN(C2CC2)C1 (centres undefined)	%	-7.4

###

Catalogue of cytotoxicity at 70.5 h values
methodNotes: Human HepG2 cell viability assay in 384 well format
Assay type: toxicity, cell-based
Design: dose 125 nL, time 70.5 hour; concentration not given beside the values
reportedConditions: HepG2 cells, read-out: Inhibition

compound	cytotoxicity at 70.5 h (%)
CC(c1nc(-c2ccccc2)no1)N1CCc2c(ncn2C2CC2)C1 (stereo not drawn)	-2.24
O=S1(=O)NCC2(CCCN(Cc3ccccn3)C2)Oc2ncccc21 (stereo not drawn)	30.8
O=C(CC(F)(F)F)N1CCC2(CCCN(c3nncs3)C2)C1 (stereo not drawn)	-3.95
CCS(=O)(=O)N1CCC2(CC1)CN(c1ccsc1)C(=O)CO2	-11.6
CNC(=O)Cn1c(-c2ccco2)nn(-c2ccccc2OC)c1=O	9.58
Cc1ccc(NC(=O)NCCc2ccncc2C)c(N(C)C)n1	-16.2
CC(Nc1cccc2c1OCCO2)C(=O)Nc1cccc(C#N)c1 (stereo not drawn)	3.49
CN1CC2(CCCN(c3cc(N4CCCCC4)ncn3)C2)OC1=O (stereo not drawn)	12.1
Cc1n[nH]c(C)c1CCNC(=O)Nc1ccc2c(c1)COC2	-19
O=S(=O)(C1CC1)N1CCC2(CC1)CN(Cc1nccs1)CCO2	-5.12
O=C(c1ccc(-n2cnnn2)cc1)N1CCCC(n2ccnc2)C1 (stereo not drawn)	-6.98
CC(C)N(C(=O)c1ccnc(OCC(F)(F)F)c1)c1cccnc1	-12.7
CS(=O)(=O)CCC(=O)NC1CC(c2ccccc2Cl)C1 (stereo not drawn)	2.56
Cc1cc(NC(=O)NCc2cccnc2OC(C)C)n(C)n1	-6.35
Cc1ncc(C)c(N2Cc3cnn(Cc4ccc(F)cc4)c3C2)n1	13
CCn1cnnc1C1CCN(C(=O)COc2ccccc2)CC1	-9.36
Cc1cc(O)n(-c2ccccc2Cl)c(=O)c1C#N	-0.226
Cc1nc(NCc2noc(C3CCCO3)n2)c2sccc2n1 (stereo not drawn)	31.3
CS(=O)(=O)Cc1ccc(Cl)cc1NCc1cccc(F)c1F	2.24
Cn1cncc1C(=O)N1CCCC(c2ccn[nH]2)C1 (stereo not drawn)	-16.9
Cn1cc(Br)cc1C(=O)NC1(C#N)CC1	15.5
CN1CCN(C2CCN(C(C(N)=O)c3ccccc3)CC2)C1=O (stereo not drawn)	-5.22
COCC(=O)N1CCCC1(C(=O)N(C)C)c1cnccn1 (stereo not drawn)	-4.12
CC(CNC(=O)Nc1ccc(C#N)cc1)N1CCc2ccccc21 (stereo not drawn)	4.28
CCC(O)CN1CCN(C(=O)c2ccnc(N(C)C)c2)CC1 (stereo not drawn)	-11.3
CCS(=O)(=O)N1C[C@@H](c2cc(O)nc(C)n2)[C@H](c2ccccc2F)C1	13.7
CCCn1ccnc1CN1CCCC1c1ccccn1 (stereo not drawn)	-4.45
COc1ccccc1CN(C)C(=O)CN1CC(n2nc(C)cc2C)C1	-2.12
CN(Cc1ccc(F)cc1)[C@@H]1CN(S(=O)(=O)N(C)C)C[C@H]1O	-0.678
CCn1nccc1CNc1nc(N)nc2c1nc(C)n2C	6.56
CNC(=O)C1(C)CN(S(=O)(=O)c2cccc(OC)c2)CCO1 (stereo not drawn)	22.5
COC[C@@]12CC[C@@H](N3CCOCC3)C[C@H]1CCN(c1ncccc1Cl)C2	-4.77
COCCC(=O)N1CCCC1c1cccc(C)c1C (stereo not drawn)	23.9
CNC(=O)NCC1CCC2(CCN(C(=O)c3ccccn3)CC2)CO1 (stereo not drawn)	1.5
N#CCCCS(=O)(=O)NC1(c2cccc(Br)c2)CC1	-8.99
CN(C)S(=O)(=O)N1C[C@H]2C[C@H](C(=O)Nc3ccccc3)[C@@H](C1)O2	-5.82
O=c1[nH]c(NCCO)nc2c1C1(CCCC1)Cc1ccccc1-2	18.4
CC(C)c1nc(C2CCCN(C(=O)CS(=O)(=O)C(C)C)C2)no1 (stereo not drawn)	-7.77

###

methodNotes: Human HepG2 cell viability assay in 384 well format
Assay type: toxicity, cell-based
Set-up: dose 125 nL, time 70.5 hour; concentration not given beside the values
reportedConditions: HepG2 cells, read-out: Inhibition

compound	cytotoxicity at 70.5 h
CCC1CCc2c(c3ccccc3[nH]c2=O)O1 (centres undefined)	24.6%
Cc1ccc(C(=O)Nc2cc(F)ccc2OCC2CCCO2)cn1 (centres undefined)	-3.09%
CC(C)(CNC(=O)CCOc1cccc(F)c1)C(N)=O	2.27%
Cc1nc(C2CCCN2C(=O)Cc2ccc3c(c2)OCO3)nc(O)c1C (centres undefined)	-5.28%
CCN(C)S(=O)(=O)NCC1(c2cccc(Br)c2)CC1	-1.33%
N[C@H]1CN(CCOc2ccc(F)cc2)C[C@@H]1C1CC1	14.7%
Cc1nn(C)cc1-c1ccnc(N(C)Cc2cnn(C)c2)n1	-2.26%
CN1CCN(C(=O)c2cc3sccc3n2Cc2ccccc2Cl)CC1	-6.69%
Cc1cc(N2Cc3cnn(CCO)c3C2)nc(-c2ccccc2)n1	-11.9%
O=C(N1CCOCC1)N1CCCC(c2ncncc2-c2ccncc2)C1 (centres undefined)	-9.55%
Cc1cc(C2CCCN2C(=O)NCc2c(C)cc(C)[nH]c2=O)on1 (centres undefined)	-7.29%
c1cnc(-c2nc(CNCCn3cccn3)cs2)nc1	8.63%
O=C(c1ccc[nH]1)N(Cc1ccc(O)cc1)CC1CC1	20.8%
Cc1cc(CN2C[C@@H]3CCCO[C@@H]3[C@H](Nc3ccccn3)C2)no1	-8.77%
CCC(C)[C@H](N)c1nnc(SCC(=O)Nc2cc(C)ccc2C)o1 (some centres undefined)	-1.84%
CCc1cnc(CNC(=O)NCCCO)s1	-3.22%
O=C(Cc1cccs1)NCC1COCc2c(-c3ccoc3)nnn2C1 (centres undefined)	-9.17%
CC(C)Cc1cc(CNC(=O)C2CCCN(Cc3ccco3)C2)no1 (centres undefined)	-4.13%
Cc1ccc2oc(CN3CCC(C(=O)O)(n4ccnc4)CC3)c(C)c2c1	-16.8%
Cc1oc(C(=O)O)cc1S(=O)(=O)Nc1cccc(-c2nccs2)c1	6.48%
Nc1nc(CCC(=O)N2C[C@H](c3ccccc3)[C@@H](N)C2)cs1	-20.5%
Cn1cccc1C(=O)N1C[C@@H](OCc2cccnc2)[C@H]2OCCC[C@H]21	8.24%
CC(C)(C)C(=O)N1CCCN(c2ncnc3nc(N)ccc23)CC1	-1.35%
O=C(Cn1cc(C2CC2)nn1)NC(c1cc(F)ccc1F)C1CC1 (centres undefined)	-5.37%

Source: ChEMBL document CHEMBL3507680
